# key: entry, value: apparent KD of MS2 coat protein
System: MS2 coat protein
EXPERIMENTAL PROTOCOL: apparent KD of MS2 coat protein, switch OFF state (with FMN for OFF switches, without FMN for ON switches); designed switch direction (-1 OFF switch, 1 ON switch): 1; higher = weaker reporter binding
CONDITION NOTES: FMN input: 0 or 200 uM; Eterna round: R93 (includes R88 designs)

INPUT SEQUENCE	SYSTEM TESTED	apparent KD of MS2 coat protein
AGGAAACAUGAGGAUCACCCAUGUAAAAAUAUGGGAGGAUAUACAAACAAGAAAGUCAAAGUAGAAGGCCUAAAAG [Garnet 6]	MS2 coat protein	152 nM
AAUAAACAUGAGGAUCACCCAUGUAGAAACAUGGGAGGAUAUACAAAGACGAAAGUCAAAGUAGAAGGCCUAAAAA [Mat - Same State 1 - Mod - D168]	MS2 coat protein	329 nM
AAAACACAUGAGGAUCACCCAUGUAGAAAUACGGGAGGAUAUGCGAAAACGAAAGACAAAGUAGAAGGCCUAAAAG [saturn 8]	MS2 coat protein	69.8 nM
AAUAAACAUGAGGAUCACCCAUGUAAAUGGGCGAUAGGAUAUGCGAAAAUAAAGAAAGAAGCAGAAGGAUCGAAGA [Ex5 sub 3]	MS2 coat protein	51.9 nM
AUAGACAUAGUUCAGGAUAUGGUAAUAGUCACAUGAGGAUCACCCAUGUGCAUUUAUAUGCGCGAUCAGAAGGGAGGUAGAUAUA [Mat - Same state - Malcolm Mod - D117]	MS2 coat protein	16.3 nM
AAUACACAUGAGGAUCACCCAUGUAGAAAGAAGGCAGGAUAUCAGAUCCACAUGUGAUAAUGAGAAGGGCCAAUAU [SS 1 Tesla 10]	MS2 coat protein	171 nM
AAAUAAAUAAGAGAGGAUAUGUCAGAGAAAACAUGAGGAUCACCCAUGUAAUAAUAAAAAGGGUGACAGAAGGCUCAAAACAAAC [Hyphema modified]	MS2 coat protein	58.5 nM
GCAAAACAUGAGGAUCACCCAUGUGAAAAGAAUGUAGGAUAUGGGCUCAUAAAUAGCAGCCCAGAAGGGCGAAGAA [Onmace]	MS2 coat protein	26.2 nM
GGAAGACAUGAGGAUCACCCAUGUGGGAAUAUGGGAGGAUAUACAAAGACGAGAGUCAGAGUAGAAGGCCUAGGAC [salish99-ss1-102]	MS2 coat protein	105 nM
AAAGACAUAGUUCAGGAUAUGGUAAUAGUCACAUGAGGAUCACCCAUGUUCUUUUAUAAGAACGAUCAGAAGGGAGGUAAAAAAA [SameState2 Malc#14]	MS2 coat protein	282 nM
CGUCUACAUGAGGAUCACCCAUGUCAAGAGUGGUCAGGAUAUGGUAUUAGAUGAGUAUGGCCAGAAGGGACAUAAG [JR_SS001_Sub715]	MS2 coat protein	386 nM
AAGAAUUAAACGCAGGAUAUGUACCCACGUACAUGAGGAUCACCCAUGUGCCUAUAAGGGUCGAGGCAGAAGGGCGAUAUAGAAA [Reteriusge]	MS2 coat protein	81.2 nM
AAUAAACAUGAGGAUCACCCAUGUAGAAACAUGGGAGGAUAUACAAAGACGAAAGUCAAAGUAGAAGGCCUAAUAA [Mat - Same State 1 - Mod - D167]	MS2 coat protein	42.4 nM
